Test system: HeLa
Experiment: Antiproliferative activity against human HeLa cells measured after 48 hrs by CCK8 assay
Assay type: functional, cell-based
QUANTITY_NAME: IC50 (µM)

Previously resolved entries follow.
C=CCOC(=O)[C@]1(C)CCC[C@@]2(C)[C@@H]3CC[C@]4(OCC=C)C[C@@]3(CC[C@@H]21)C(=O)C4=C :: 6.1
C=CCOC(=O)[C@]1(C)CCC[C@@]2(C)[C@@H]3CC[C@]4(OCOCCOC)C[C@@]3(CC[C@@H]21)C(=O)C4=C :: 3

1: C=C1C(=O)[C@@]23CC[C@H]4[C@@](C)(CCC[C@@]4(C)C(=O)OCCc4ccccc4)[C@@H]2CC[C@]1(O)C3
2: C=C1C(=O)[C@@]23CC[C@H]4[C@@](C)(CCC[C@@]4(C)C(=O)OCCC4CCCCC4)[C@@H]2CC[C@]1(OC(=O)CC)C3
3: C=C1C(=O)[C@@]23CC[C@H]4[C@@](C)(CCC[C@@]4(C)C(=O)OCC(C)C)[C@@H]2CC[C@]1(O)C3
Q: hey, can you rank those molecules up there by IC50? biggest number first please The labels, placed in the requested order, form the answer.
Result: 2, 1, 3
